- target-or-test-system: T1, HLA-A*02:01 (peptide-receptive MHC class I monomer after UV cleavage of the UV-sensitive ligand) (human)
- T1 construct: MHC monomers loaded by UV-ligand exchange and captured on streptavidin plates
- experimental-protocol: UV ligand-exchange ELISA; exchange yield grade (+ >=10%, ++ >=20%, +++ >=50%, ++++ >=75%)
# reported peptide exchange yield; entries follow

TLLGFFLAKV [TLLGFFLAKV (SEQ ID NO: 4)] :: 20 to 50%

Data request, read-out peptide exchange yield, for YLLTDNVVKL [YLLTDNVVKL (SEQ ID NO: 197)]
20 to 50%

# repeat for SLNSTTWKV [SLNSTTWKV (SEQ ID NO: 199)]
50 to 75%

# repeat for ILDTIFHKV [ILDTIFHKV (SEQ ID NO: 203)]
50 to 75%

# repeat for LLWEDGVTEA [LLWEDGVTEA (SEQ ID NO: 34)]
50 to 75%
